Tested on: CCRF-CEM
assay_notes: Growth inhibition of CEM cells by MTT assay
measurement_context: Homo sapiens
parameter_measured: pIC50
Worth noting: pIC50 values are minus log10 of concentrations stated in mol/L.

- molecule: "Nc1ccn([C@@H]2O[C@H](CO)[C@@H](O)C2(F)F)c(=O)n1"
  pIC50: 6.89

Note: attention shifts to another entry.
Quick one: pIC50 of CN(CCCCCl)P(=O)(OCc1ccc([N+](=O)[O-])o1)OC[C@H]1O[C@@H](n2ccc(N)nc2=O)C(F)(F)[C@@H]1O (some centres not stated) ?
5.70

* * *

# pIC50 per record follows
assay_notes: Growth inhibition of AG6000 cells by SRB assay
Assay type: functional, cell-based
measurement_context: Homo sapiens
Note: pIC50 values are expressed as the negative base-10 logarithm of concentration in M.

- compound: "CN(CCCCCl)P(=O)(OCc1ccc([N+](=O)[O-])o1)OC[C@H]1O[C@@H](n2ccc(N)nc2=O)C(F)(F)[C@@H]1O (some centres not stated)"
  pIC50: 5.30

Which pIC50 is reported for this compound? Nc1ccn([C@@H]2O[C@H](CO)[C@@H](O)C2(F)F)c(=O)n1 [GEMCITABINE]
4.70

The measurements presented in this section are drawn from ChEMBL document CHEMBL1146216.
